Tested on: 817829-284-R-J1-PDC complex spheroids, viability;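 further: spheroids exposed to agents for 7 days before readout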
Assay overview: Anticancer human tumor 817829-284-R-J1-PDC patient-derived colon adenocarcinoma cell line growth inhibition [GQUAD]; active means viability on the fitted dose curve at most 10% of control; inactive means the rest
Protocol conditions: second compound 10 µM; first compound 3.16 µM
The reply should be one of these categories: active, inactive

• O=C(NO)c1cnc(N2CCN(S(=O)(=O)c3ccc4ccccc4c3)CC2)nc1 + Cc1cnc(CNC(=O)c2c(=O)c3ccc(N4CCCN(C)CC4)nc3n3c2sc2ccccc23)cn1 = active
• C=CCn1c(=O)c2cnc(Nc3ccc(N4CCN(C)CC4)cc3)nc2n1-c1cccc(C(C)(C)O)n1 + CN(C)c1ccc(Nc2c3ccc(NC(=O)CCN4CCCC4)cc3nc3cc(NC(=O)CCN4CCCC4)ccc23)cc1 = active
• CCCS(=O)(=O)Nc1ccc(F)c(C(=O)c2c[nH]c3ncc(-c4ccc(Cl)cc4)cc23)c1F + CN(C)c1ccc(Nc2c3ccc(NC(=O)CCN4CCCC4)cc3nc3cc(NC(=O)CCN4CCCC4)ccc23)cc1 = inactive

# input for lookup
Which result was noted for this compound in the test: CC(=O)O[C@H]1C(=O)[C@@]2(C)[C@H]([C@H](OC(=O)c3ccccc3)[C@]3(O)C[C@H](OC(=O)[C@H](O)[C@@H](NC(=O)c4ccccc4)c4ccccc4)C(C)=C1C3(C)C)[C@]1(OC(C)=O)CO[C@@H]1C[C@@H]2O + Cc1cnc(CNC(=O)c2c(=O)c3ccc(N4CCCN(C)CC4)nc3n3c2sc2ccccc23)cn1
active
